Ref: patent US20250177340A1

test system: Granzyme B and IFN-γ; experiment: Dose-response of GranzymeB/IFN-γ double positivity in murine CD8+ T-cells, Example 9; assay type: cell-based, C57BL/6 mice; details: Mus musculus, T-cell; FIG. 4, 5-parameter fit; read-out: maximal response (GzmB/IFN-γ double positive CD8+ T-cells)

# SMILES DATA, Emax
measured = [
    ("O=C(O)[C@H](O)[C@@H](O)C(=O)OCCC(c1ccccc1)c1ccccc1", "~60%"),
    ("O=C(O)[C@H](O)[C@@H](O)C(=O)OCCCc1ccccc1", "~60%"),
    ("O=C(O)[C@H](O)[C@@H](O)C(=O)OCCC1c2ccccc2-c2ccccc21", "40%"),
    ("O=C(O)[C@H](O)[C@@H](O)C(=O)NCCC(c1ccccc1)c1ccccc1", "~60%"),
]

====

system: Granzyme B and IFN-γ; assay: Dose-response of GranzymeB/IFN-γ double positivity in murine CD8+ T-cells, Example 9; format: cell-based, C57BL/6 mice; details: Mus musculus, T-cell, 4-parameter model
RESULT TYPE: EC50 (nM)

# SMILES DATA, RECORDED RESULT
data = [
    ("O=C(O)[C@H](O)[C@@H](O)C(=O)OCCCc1ccccc1", 9.8),
    ("O=C(O)[C@H](O)[C@@H](O)C(=O)OCCC(c1ccccc1)c1ccccc1", 43),
    ("O=C(O)[C@H](O)[C@@H](O)C(=O)NCCC(c1ccccc1)c1ccccc1", 93),
    ("O=C(O)[C@H](O)[C@@H](O)C(=O)OCCC1c2ccccc2-c2ccccc21", 4.1),
]

====

assay: Oral bioavailability; format: in vivo; conditions: mouse, in vivo, po; data not shown

# COMPOUND, bioavailability
rows = [
    ("O=C(O)[C@H](O)[C@@H](O)C(=O)OCCCc1ccccc1 [Compound B]", "~30%"),
]

====

tested on: murine CD8+ T cells; experiment: Murine CD8+ T-cell proliferation (CFSE), Example 6; format: cell-based, C57BL/6 mice; settings: 30 mM, in absence of PS, ConA 10 μg/ml
RESULT TYPE: percent of CD8+ T-cell proliferation (%)

# MOLECULE, RECORDED RESULT
measured = [
    ("O=C(O)[C@H](O)[C@@H](O)C(=O)OCCC(c1ccccc1)c1ccccc1", 84.5),
    ("O=C(O)[C@H](O)[C@@H](O)C(=O)OCc1ccccc1", 64.4),
    ("O=C(O)[C@H](O)[C@@H](O)C(=O)OCCCc1ccccc1", 78.3),
    ("O=C(O)[C@H](O)[C@@H](O)C(=O)O [L-(+)-tartaric acid]", 41.74),
]

====

system: Granzyme B and IFN-γ; assay: Dose-response of GranzymeB/IFN-γ double positivity in murine CD8+ T-cells, Example 9; format: cell-based, C57BL/6 mice; settings: Mus musculus, T-cell, 4-parameter model
RESULT TYPE: EC90 (µM)

# SMILES DATA, OUTPUT UNIT, RECORDED RESULT
rows = [
    ("O=C(O)[C@H](O)[C@@H](O)C(=O)NCCC(c1ccccc1)c1ccccc1", "µM", 120),
    ("O=C(O)[C@H](O)[C@@H](O)C(=O)OCCC1c2ccccc2-c2ccccc21", "µM", 0.05),
    ("O=C(O)[C@H](O)[C@@H](O)C(=O)OCCC(c1ccccc1)c1ccccc1", "µM", 29),
    ("O=C(O)[C@H](O)[C@@H](O)C(=O)OCCCc1ccccc1", "µM", 0.95),
]
